tested on: Fusobacterium necrophorum 6054A; experiment: Agar dilution susceptibility of anaerobic bacteria (Chart 1); assay type: cell-based; settings: Fusobacterium necrophorum, 6054A, 24 h, agar dilution, 37° C.; Fusobacterium necrophorum 6054A; read-out: 24 Hr. MIC

>  <Compound>
CCC[C@@H]1C[C@@H](C(=O)N[C@@H]([C@H]2O[C@H](SC)[C@H](O)[C@@H](O)[C@H]2O)[C@H](C)Cl)N(C)C1 [C, clindamycin, reference compound]

>  <Assayed target>
Fusobacterium necrophorum 6054A

>  <MIC>
≤ 0.5 µg/mL

$$$$
>  <Compound>
Cn1nc(-c2ncc([N+](=O)[O-])n2C)c(C#N)c1NC(=O)C(=O)c1ccccc1

>  <Assayed target>
Fusobacterium necrophorum 6054A

>  <MIC>
0.5 µg/mL

$$$$
>  <Compound>
CCOC(=O)C(=O)Nc1c(C#N)c(-c2ncc([N+](=O)[O-])n2C)nn1C

>  <Assayed target>
Fusobacterium necrophorum 6054A

>  <MIC>
≤ 0.25 µg/mL

$$$$
>  <Compound>
Cn1nc(-c2ncc([N+](=O)[O-])n2C)c(C#N)c1NC(=O)C(=O)NN

>  <Assayed target>
Fusobacterium necrophorum 6054A

>  <MIC>
≤ 0.25 µg/mL

$$$$
